# target-entity: ePL tagged IDO1 (Homo sapiens, UniProt P14902)
# Construct: expressed in transfected cells; host or cells: HeLa cells transduced with BacMam virus
# Sequence (P14902 whole entry): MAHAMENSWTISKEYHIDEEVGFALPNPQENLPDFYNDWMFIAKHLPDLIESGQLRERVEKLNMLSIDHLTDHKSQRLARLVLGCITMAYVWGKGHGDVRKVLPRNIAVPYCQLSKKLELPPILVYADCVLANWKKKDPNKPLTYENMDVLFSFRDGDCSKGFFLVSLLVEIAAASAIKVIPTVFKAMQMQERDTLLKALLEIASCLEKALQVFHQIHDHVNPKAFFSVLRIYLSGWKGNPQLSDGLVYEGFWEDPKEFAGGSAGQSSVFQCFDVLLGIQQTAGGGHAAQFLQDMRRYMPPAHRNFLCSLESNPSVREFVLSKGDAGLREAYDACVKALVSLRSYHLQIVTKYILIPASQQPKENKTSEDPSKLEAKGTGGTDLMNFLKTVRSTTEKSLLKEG
# assay-method-text: CETSA (Cellular Thermal Shifting assay) in Hela cells
# Format: binding
# condition-notes: BacMam ePL tagged IDO1, 3 hours at 37° C., heated at 53° C. for 3 min, read-out: pXC50_1 (converted)
EC50 reference
State just the number; it will be interpreted in nM.

Some solved cases for reference:
{"compound": "CC(C)CN(c1ccc([C@H](C)CC(=O)O)cc1Nc1ccc(Cl)nc1)C1CCOCC1 [Example 6]", "target-entity": "ePL tagged IDO1 (Homo sapiens, UniProt P14902)", "EC50 [nM]": 13.8}
{"compound": "CO[C@H]1CC[C@@H](N(CC(C)C)c2ccc([C@H](C)CC(=O)O)cc2Nc2nc(C(F)(F)F)n[nH]2)CC1 [Example 51]", "target-entity": "ePL tagged IDO1 (Homo sapiens, UniProt P14902)", "EC50 [nM]": 1.7}
{"compound": "CC(C)CN(c1ccc([C@H](C)CC(=O)O)cc1Nc1nnc(C2CC2)s1)C1CCOCC1 [Example 23]", "target-entity": "ePL tagged IDO1 (Homo sapiens, UniProt P14902)", "EC50 [nM]": 331}

QUERY: Please look up its EC50: CC(C)CN(c1ccc([C@H](C)CC(=O)O)cc1Nc1nc(C(F)(F)F)ns1)[C@H]1CC[C@H](O)CC1 [Example 44]
RESULT: 1.7
